- measurement.target: Estrogen receptor (Homo sapiens, UniProt P03372);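 further: potency for inhibiting coactivator peptide recruitment to the receptor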
- Sequence (P03372 whole entry): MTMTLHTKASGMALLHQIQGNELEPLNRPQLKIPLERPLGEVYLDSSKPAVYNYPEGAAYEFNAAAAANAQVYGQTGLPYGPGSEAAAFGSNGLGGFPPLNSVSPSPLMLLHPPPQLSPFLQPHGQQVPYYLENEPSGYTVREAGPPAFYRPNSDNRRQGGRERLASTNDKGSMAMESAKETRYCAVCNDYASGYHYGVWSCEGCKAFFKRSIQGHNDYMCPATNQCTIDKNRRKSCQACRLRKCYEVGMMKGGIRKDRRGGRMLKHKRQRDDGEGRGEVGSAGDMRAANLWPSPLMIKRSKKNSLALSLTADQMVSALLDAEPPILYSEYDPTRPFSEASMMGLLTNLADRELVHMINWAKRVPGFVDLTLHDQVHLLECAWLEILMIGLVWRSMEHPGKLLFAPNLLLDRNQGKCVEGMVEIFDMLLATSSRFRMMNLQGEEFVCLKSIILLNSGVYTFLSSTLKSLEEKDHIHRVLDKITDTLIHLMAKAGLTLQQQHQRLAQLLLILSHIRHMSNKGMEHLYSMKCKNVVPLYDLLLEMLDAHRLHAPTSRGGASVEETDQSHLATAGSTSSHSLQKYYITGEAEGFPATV
Active and inactive are the calls of the source.
readout: IC50

Query :: Entry under review: O=Cc1ccc2oc3nc4n(c(=O)c3c(=O)c2c1)CCCS4 . Reported IC50?
Result :: 17.8 µM (active)

Query :: Entry CC(C)CC(=O)Nc1ccc(C(=O)COc2ccc(-c3nnco3)cc2)cc1 please
Result :: 22.3 µM (active)

Query :: How about Cc1oc(-c2ccc(Cl)cc2)cc1-c1nn2c(-c3ccoc3C)nnc2s1 ?
Result :: 2.77 µM (active)

Query :: # repeat for COC(=O)c1ccc(CSc2nc3c(cnn3-c3ccc(C)c(C)c3)c(=O)[nH]2)o1
Result :: 38.5 µM (not active)

Query :: Ok, now COc1ccc(N(CN2C(=O)C3C4C=CC(C4)C3C2=O)C(=O)c2ccco2)cc1 (stereo unspecified)
Result :: > 50 µM (not active)

Query :: // next record COc1ccc(Cc2nc3ccc(S(=O)(=O)N4CCOCC4)cc3[nH]2)cc1
Result :: > 50 µM (not active)

* * *

- measurement.target: Alkaline phosphatase, tissue-nonspecific isozyme (Homo sapiens)
- Sequence (P05186 whole entry): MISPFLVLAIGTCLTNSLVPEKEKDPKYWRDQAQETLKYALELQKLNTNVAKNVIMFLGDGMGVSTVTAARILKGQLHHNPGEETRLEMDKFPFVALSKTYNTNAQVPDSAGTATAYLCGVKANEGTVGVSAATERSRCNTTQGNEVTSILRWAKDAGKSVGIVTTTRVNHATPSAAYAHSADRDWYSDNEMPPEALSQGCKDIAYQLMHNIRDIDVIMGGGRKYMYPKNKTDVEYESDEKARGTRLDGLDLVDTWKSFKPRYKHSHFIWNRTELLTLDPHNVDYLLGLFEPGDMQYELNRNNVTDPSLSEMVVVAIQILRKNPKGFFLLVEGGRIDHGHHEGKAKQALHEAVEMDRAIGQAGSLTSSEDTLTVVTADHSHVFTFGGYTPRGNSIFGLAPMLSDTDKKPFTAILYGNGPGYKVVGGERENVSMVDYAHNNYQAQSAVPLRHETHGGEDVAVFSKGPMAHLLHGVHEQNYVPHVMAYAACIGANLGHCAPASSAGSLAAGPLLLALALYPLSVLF
- method.notes: potency against alkaline phosphatase TNAP – biochemical, luminescent, dose response, SAR follow-up (AID 1056)
The source made the active and inactive calls.
Classes to choose from: active, inactive

Query :: GET /call?item= Cc1cccc(C)c1OCc1nnc2c3cnn(-c4ccccc4)c3ncn12 returns the recorded outcome of this test.
Result :: inactive

Query :: Another compound to check: O=S(=O)(Nc1ccccc1Br)c1cnc2ccccc2c1
Result :: inactive

Query :: And the next one, O=C(CSc1nc2ccccc2s1)c1ccc(O)c(O)c1 ?
Result :: active

Query :: Can you check O=S(=O)(Nc1cccnc1)c1cc(Cl)ccc1F next?
Result :: active

Query :: Same for CCCCN(C)C(=O)NC1(C(F)(F)F)Oc2ccccc2O1
Result :: inactive

* * *

For each entry below, report its IC50 value.
- measurement.target: Leucine aminopeptidase (Plasmodium falciparum 3D7, UniProt Q8IL11)
- Sequence (Q8IL11 whole entry): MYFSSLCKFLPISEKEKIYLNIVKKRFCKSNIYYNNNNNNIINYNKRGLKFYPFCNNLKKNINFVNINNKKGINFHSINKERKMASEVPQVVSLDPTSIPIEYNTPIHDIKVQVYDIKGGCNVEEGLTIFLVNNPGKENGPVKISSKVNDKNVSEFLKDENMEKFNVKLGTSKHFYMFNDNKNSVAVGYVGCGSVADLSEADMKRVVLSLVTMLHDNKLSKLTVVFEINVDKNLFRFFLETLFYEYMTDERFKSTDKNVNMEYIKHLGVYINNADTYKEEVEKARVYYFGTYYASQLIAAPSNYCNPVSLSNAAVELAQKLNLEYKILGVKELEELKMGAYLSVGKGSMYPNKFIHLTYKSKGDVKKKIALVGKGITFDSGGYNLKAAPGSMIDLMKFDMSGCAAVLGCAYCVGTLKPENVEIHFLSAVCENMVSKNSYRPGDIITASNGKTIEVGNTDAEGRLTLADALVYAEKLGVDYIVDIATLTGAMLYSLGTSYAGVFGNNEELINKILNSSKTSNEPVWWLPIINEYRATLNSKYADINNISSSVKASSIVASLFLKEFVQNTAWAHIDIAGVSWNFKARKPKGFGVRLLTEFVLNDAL
- method.notes: P. falciparum M17LAP inhibitors, primary screen, biochemical, fluorogenic H-Leu-NHMec substrate, 1536-well (AID 1619)
- Assay type: functional
Active and inactive are the calls of the source.

Query :: Record request: IC50 value, item CSc1cccc(NC(=O)CN2C(=O)c3ccccc3S2(=O)=O)c1
Result :: 5.87 µM (active)

Query :: Query C=CCOc1c(OC)cc(/C=N/Nc2cccc(C(=O)O)c2)c(Br)c1Br next
Result :: < 1 µM (active)

Query :: Another: O=C(O)c1cccc(-n2cccc2/C=C2/NC(=O)N(Cc3ccccc3F)C2=O)c1
Result :: 53.2 µM (active)

Query :: Now consider O/N=C/c1c[nH]c2ccccc12 .
Result :: 13.2 µM (active)

Query :: // query: O=C1C2C3C=CC(CC3)C2C(=O)N1/N=C/c1ccc(O)c(O)c1 (stereo not drawn)
Result :: 34.3 µM (active)

Query :: Follow-up entry: Cc1ccc(-c2n[nH]c3c2C(C)C(C#N)=C(N)O3)cc1 (stereo not drawn)
Result :: 16.3 µM (active)

Query :: Lookup N#Cc1c(NC(=O)C2C3C=CC(C3)C2C(=O)O)sc2c1CCCCC2 (stereo not drawn)
Result :: 1.39 µM (active)

Query :: Proceed to CC(C)(C)C1CCc2c(C(=O)NNC(=O)CCCC(=O)O)csc2C1 (stereo not drawn)
Result :: 11.6 µM (active)
